Hey, just so you know, these numbers are from patent US10004732B2.

# System: IL-8-induced neutrophil shape change in human whole blood
# measurement_notes: Whole blood neutrophil shape change assay (L)
# Assay type: cell-based
# run_conditions: Homo sapiens, Neutrophil, IL-8, human whole blood, read-out: Assay L WBSC IC50
endpoint_name: IC50 (nM)

Previously resolved entries follow.
Cc1ccc(S(=O)(=O)NOC(C)(C)C)cc1-c1cnc(N)c(-n2cncn2)n1; 1330
Cc1ccc(S(=O)(=O)N[C@H]2CC[C@@H](O)CC2)cc1-c1cnc(N)c(-c2cnn(C)c2)n1; 830

1: Cc1ncc(-c2nc(-c3cc(S(=O)(=O)NCC4(O)CCOCC4)ccc3C)cnc2N)s1
2: Cc1ccc(S(=O)(=O)N[C@H]2CC[C@](C)(O)CC2)cc1-c1cnc(N)c(-n2cncn2)n1 [Example 69a]
stdin: Higher IC50: 1 or 2 ? Respond with the label that goes with your answer.
stdout: 2
(2: 1150 nM, 1: 662 nM)
